The measurements presented in this section are drawn from the supplement of paper PMC12042874.

experiment: amyloid nucleation score (Sup35N fusion, yeast selection) (log enrichment); library NNK3; higher = more nucleation; inactive = no reads after selection;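 also: zero at mode of non-aggregating sequences after 7 days selection at 30°C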
property.label: amyloid nucleation score

| substance | property.label | reported |
| --- | --- | --- |
| AFPTVLLHWRN | amyloid nucleation score | inactive |
| PVHGSKGPSGHVCRQCGFLM | amyloid nucleation score | inactive |
| EKLVTCKDYFNRASTVTSLG | amyloid nucleation score | inactive |
| ACKLIEFSSQQVFVGFGVHA | amyloid nucleation score | inactive |
| YVCGLRRKSLVGKLYSIGLS | amyloid nucleation score | inactive |
| DGACVSSRLSWGLVYMKKCS | amyloid nucleation score | inactive |
| LRIERQSAFSCILDM | amyloid nucleation score | inactive |
| ASSSQGRDYVCMSYNFIGGV | amyloid nucleation score | -0.551 |
| CIYNVKALIQRVWIMIEVTS | amyloid nucleation score | 0.707 |
| HFQMRAERDESSNRPYSSFG | amyloid nucleation score | inactive |

The reported value for `SMLVELVFSLQTQSSGSSGR` in terms of amyloid nucleation score is -0.059

====

assay: amyloid nucleation score (Sup35N fusion, yeast selection) (log enrichment); library NNK3; higher = more nucleation; inactive = no reads after selection
property.label: amyloid nucleation score

Field: example entries. Status: answers known.
| substance | amyloid nucleation score |
| --- | --- |
| MNLVSSIVNYCFGRWGWLVG | inactive |
| PVTVFWVTMTSWYVNIRG | inactive |
| VRMSRYSEWQDFNIPIEVIV | 0.776 |
| GCNYTVSTYILRVSDFTYYM | -0.585 |

The reported value for `GNMLSPI` in terms of amyloid nucleation score is inactive

The reported value for `TIMCNIWLGFRT` in terms of amyloid nucleation score is 2.01

The reported value for `MLDYVF` in terms of amyloid nucleation score is inactive

The reported value for `NDTWCVLFRTPKLLCMSVFT` in terms of amyloid nucleation score is inactive

The reported value for `SFSELVSAASKTQTVCRRKC` in terms of amyloid nucleation score is inactive

====

Catalogue of substances with associated amyloid nucleation score
test: amyloid nucleation score (Sup35N fusion, yeast selection) (log enrichment); library NNK1; higher = more nucleation; inactive = no reads after selection
// response body must contain only the number

| substance | amyloid nucleation score |
| --- | --- |
| IICSLW | 0.614 |
| QRPLCENRLDYKLGYSTMTF | -0.646 |
| SFSSSSLYSLVCRYHSIRWA | 0.589 |
| RHVAYRSLRFSGCTP | 0.416 |
| LACTSASSVSRESFMYSQMS | 2.78 |

The reported value for `LSFLSSVSDLIKLSSIFYGY` in terms of amyloid nucleation score is -0.264

The reported value for `GTLNMIFRFGMHAIVSYFWG` in terms of amyloid nucleation score is 0.024

The reported value for `GWCNMGGANVWKMQVTGPAE` in terms of amyloid nucleation score is 0.948

====

experiment: amyloid nucleation score (Sup35N fusion, yeast selection) (log enrichment); library NNK1; higher = more nucleation; inactive = no reads after selection
Consider the reported amyloid nucleation score of an entry and match it to a band in low end (below 0.3), middle (0.3 to below 0.8), high end (0.8 or more)

Solved cases below.
| polymer.sequence | assigned.category |
| --- | --- |
| SWWPDGLNEMSG | high end |
| LRVMKKRLVDATHNFVPVAN | high end |
| VFSIIRPGMASSLHGQVQIA | high end |
| LNLLYASWYYSFGVR | low end |
| LKCRLLVQTQLSESRGMWTS | middle |
| YAVCRLANSSGSRHVFLCHT | middle |
| RYHRTGCLGILWLSLSHRLS | middle |
| NRSGGTSAIDYHSWLVYHAG | low end |

Attention now turns to another entry.
Exercise: In plain terms, what class is `LWSYRDFRQVSTELN` ?
Solution: low end
